Can you tell me pIC50 for the items I'm about to list?
target: human P2X3 receptor (Homo sapiens (Human), UniProt P56373); assay: Evaluation of human P2X3 receptor inhibitory activity (Fluo-3 calcium fluorescence, FDSS 3000, ATP stimulation); assay type: cell-based; conditions: human P2X3 receptor, Test Example 1
Sequence (P56373 whole entry): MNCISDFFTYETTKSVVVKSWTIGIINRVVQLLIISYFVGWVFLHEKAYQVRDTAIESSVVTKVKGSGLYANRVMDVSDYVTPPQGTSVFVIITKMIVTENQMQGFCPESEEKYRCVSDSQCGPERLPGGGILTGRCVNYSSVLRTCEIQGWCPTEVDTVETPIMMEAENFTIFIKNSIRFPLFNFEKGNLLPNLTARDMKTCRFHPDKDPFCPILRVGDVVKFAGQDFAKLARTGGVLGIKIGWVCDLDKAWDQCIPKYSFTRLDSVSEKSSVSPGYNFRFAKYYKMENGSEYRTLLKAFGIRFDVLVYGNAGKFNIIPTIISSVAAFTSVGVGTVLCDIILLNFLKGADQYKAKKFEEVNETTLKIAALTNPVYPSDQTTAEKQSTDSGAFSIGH
Answers are plain numbers, as −log10 of the molar value.

Examples with answers:
INSERT INTO measurements (compound, reported_measurement) VALUES
  ('Cc1ccc(Cn2c(=O)n(CCCO)c(=O)[nH]/c2=N\c2ccc(Oc3cccc(C#N)n3)cc2)cc1', 8.70),
  ('CCn1c(=O)[nH]/c(=N\c2ccc(Oc3ccc(C(=O)O)cn3)cc2)n(Cc2ccc(Cl)cc2)c1=O', 8.22),
  ('O=C(O)Cn1c(=O)[nH]/c(=N\c2ccc(Oc3cccnn3)cc2)n(Cc2ccc(Cl)cc2)c1=O', 6.48),
  ('CCOC(=O)C1(Cn2c(=O)[nH]/c(=N\c3ccc4nc(C)sc4c3)n(Cc3ccc(Cl)cc3)c2=O)CC1', 8.52),
  ('CCn1c(=O)[nH]/c(=N\c2ccc(Oc3cccc(C(N)=O)n3)cc2)n(C[C@H]2CC[C@H](C)CC2)c1=O', 9.00);

For every item below, please supply its pIC50.
1. CCn1c(=O)[nH]/c(=N\c2ccc(Oc3ncccc3C(N)=O)cc2)n(Cc2ccc(Cl)cc2)c1=O
2. CCOC(=O)CNc1ccc(Oc2ccc(/N=c3\[nH]c(=O)n(CC)c(=O)n3Cc3ccc(Cl)cc3)cc2)cn1
3. Cc1nsc(Oc2ccc(/N=c3\[nH]c(=O)n(C[C@H](O)CO)c(=O)n3Cc3ccc(F)cc3)cc2)n1

[6.68, 7.57, 7.70]

----------
target: human P2X3 receptor (Homo sapiens (Human)); assay: Evaluation of human P2X3 receptor inhibitory activity (Fluo-3 calcium fluorescence, FDSS 3000, ATP stimulation); assay type: cell-based; conditions: C6BU-1 cells stably expressing human P2X3 receptor
Mark Fulfilled only when IC50 stays strictly below 0.06 µM. Values equal to the cut-off are Not fulfilled.

Worked cases, answers included:
INSERT INTO measurements (molecule, class) VALUES
  ('CC(C)Oc1ccc(/N=c2\[nH]c(=O)n(C[C@H]3CC(=O)N([C@@H](C)c4ccccc4)C3)c(=O)n2Cc2ccc(Cl)cc2)cc1F [Compound I-0661]', 'Fulfilled'),
  ('CNC(=O)CCn1c(=O)[nH]/c(=N\c2ccc(OCC3CC3)cc2)n(Cc2ccc(Cl)cc2)c1=O [Compound I-1912]', 'Fulfilled'),
  ('CC(C)Oc1cccc(Cn2c(=O)n(Cc3ccc(Cl)cc3)c(=O)n(C(C)C)c2=O)c1 [Compound I-1292]', 'Not fulfilled'),
  ('CNC(=O)Cn1c(=O)[nH]/c(=N\c2ccc(O[C@H](C)C(F)(F)F)cc2)n(Cc2ccc(Cl)cc2)c1=O [Compound I-1960]', 'Fulfilled');

Decide: IC50 of Cn1c(=O)[nH]/c(=N\c2ccc(Oc3cncc(C(=O)O)c3)cc2)n(Cc2ccc(Cl)cc2)c1=O [Compound I-2103] strictly below 0.06 µM? Fulfilled

----------
molecular target: human P2X3 receptor (Homo sapiens (Human)); experiment: Evaluation of human P2X3 receptor inhibitory activity (Fluo-3 calcium fluorescence, FDSS 3000, ATP stimulation); format: cell-based; conditions: C6BU-1 cells stably expressing human P2X3 receptor, Fluo-3 fluorescence, FDSS 3000
pIC50: −log10 of the molar value.
Returns one of Satisfied or Not satisfied; Satisfied when pIC50 is >= 7.

INSERT INTO results (compound, class) VALUES
  ('Cc1cc(/N=c2\[nH]c(=O)n([C@H](C)[C@@H](C)C(=O)N[C@H](C)[C@@H](O)c3ccccc3)c(=O)n2Cc2ccc(Cl)cc2)ccc1OC(C)C [Compound I-1163]', 'Not satisfied');

Now consider a different compound.
Decide: pIC50 of CCc1oc2ccc(/N=c3\[nH]c(=O)n(CC(C)(CO)CO)c(=O)n3Cc3ccc(Cl)cc3)cc2c1C [Compound I-1644] >= 7? Satisfied

----------
Provide the recorded pIC50 for the entries that follow.
target: human P2X3 receptor (Homo sapiens (Human)); assay: Evaluation of human P2X3 receptor inhibitory activity (Fluo-3 calcium fluorescence, FDSS 3000, ATP stimulation); format: cell-based; conditions: C6BU-1 cells stably expressing human P2X3 receptor
One number for each entry, as −log10 of the molar value.

Here's what some known entries look like.
INSERT INTO results (compound, reported_measurement) VALUES
  ('Cc1ccc(Oc2ccc(/N=c3\[nH]c(=O)n(CC(=O)O)c(=O)n3Cc3ccc(Cl)cc3)cc2)cn1', 6.70),
  ('CCn1c(=O)[nH]/c(=N\c2ccc(Oc3cncc(CO)c3)cc2)n(Cc2ccc(Cl)cc2)c1=O', 7.68);

Could you report pIC50 for every entry in the following list?
1. CCOC(=O)c1cnc(Oc2ccc(/N=c3\[nH]c(=O)n(CC)c(=O)n3Cc3ccc(Cl)cc3)cc2)s1
2. CCOC(=O)CCn1c(=O)[nH]/c(=N\c2ccc(Oc3ccncc3)cc2)n(Cc2ccc(C)cc2)c1=O
3. CCOC(=O)CCn1c(=O)[nH]/c(=N\c2ccc(CC(C)C)c(F)c2)n(Cc2ccc(C)cc2)c1=O
4. CCOc1ccc(/N=c2\[nH]c(=O)n(C[C@H](C)C(=O)O)c(=O)n2Cc2ccc(C)cc2)cc1F
5. CCC(=O)Nc1cc(Oc2ccc(/N=c3\[nH]c(=O)n(CC)c(=O)n3Cc3ccc(Cl)cc3)cc2)ccn1
6. CCOc1ccc2cc(/N=c3\[nH]c(=O)n(CCC(=O)O)c(=O)n3Cc3ccc(C)cc3)ccc2c1

[8.70, 8.40, 7.59, 7.46, 8.22, 6.10]

Quick batch: pIC50 for everything below.
1. Cc1ccc(Oc2ccc(/N=c3\[nH]c(=O)n(CC(C)(C)C(=O)O)c(=O)n3Cc3ccc(Cl)cc3)cc2)cn1
2. COC(=O)CCCn1c(=O)[nH]/c(=N\c2ccc(Oc3ccncc3)cc2)n(Cc2ccc(Cl)cc2)c1=O
3. CCCCOc1ccc(/N=c2\[nH]c(=O)n(C[C@H](C)C(=O)OC)c(=O)n2Cc2ccc(C)cc2)cc1
4. COC(=O)[C@@H](C)Cn1c(=O)[nH]/c(=N\c2ccc(OC)c(Cl)c2)n(Cc2ccc(Cl)cc2)c1=O

1: 8.05; 2: 8.52; 3: 7.43; 4: 6.97

For each listed entry, give its pIC50.
1. CCn1c(=O)[nH]/c(=N\c2ccc(Oc3cccc(C(N)=O)n3)cc2)n(Cc2ccc(Cl)cc2)c1=O
2. CCn1c(=O)[nH]/c(=N\c2ccc(Oc3ccccc3C(N)=O)cc2)n(Cc2ccc(Cl)cc2)c1=O
3. CC(C)Oc1ccc(/N=c2\[nH]c(OCC(=O)N(C)CCO)nc(=O)n2Cc2ccc(Cl)cc2)cc1F
4. COC(=O)[C@@H](C)Cn1c(=O)[nH]/c(=N\c2cnc(OC3CCCC3)c(Cl)c2)n(Cc2ccc(C)cc2)c1=O
5. C[C@@H](Cn1c(=O)[nH]/c(=N\c2ccc3c(c2)CCO3)n(Cc2ccc(Cl)cc2)c1=O)C(=O)O
6. COC(=O)[C@H](C)[C@H](C)n1c(=O)[nH]/c(=N\c2ccc(CC(C)C)c(OC)c2)n(Cc2ccc(Cl)cc2)c1=O
7. CCCCCc1ccc(/N=c2\[nH]c(=O)n(C[C@H](C)C(=O)OC)c(=O)n2Cc2ccc(C)cc2)cc1
8. CC(C)Oc1ccc(/N=c2\[nH]c(=O)n(Cc3noc(=O)[nH]3)c(=O)n2Cc2ccc(Cl)cc2)cc1F

8.10
6.33
6.21
7.41
6.10
7.25
6.27
7.51

----------
Record form. Attribute: pIC50. Fill in for each entry.
biological target: human P2X3 receptor (Homo sapiens (Human), UniProt P56373); experiment: Evaluation of human P2X3 receptor inhibitory activity (Fluo-3 calcium fluorescence, FDSS 3000, ATP stimulation); assay type: cell-based; settings: C6BU-1 cells stably expressing human P2X3 receptor;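 also: stimulus was 50 nM ATP with fluorescence followed for 3 min, and the response per well was peak post-ATP fluorescence divided by the reading at measurement start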
Answers are plain numbers, as −log10 of the molar value.

I'm hoping you can list pIC50 for every molecule here, please.
1. CCOC(=O)CCn1c(=O)[nH]/c(=N\c2ccc(OC3CCC3)c(C)c2)n(Cc2ccc(Cl)cc2)c1=O
2. CCn1c(=O)[nH]/c(=N\c2ccc(Oc3cc(C(=O)O)on3)cc2)n(Cc2ccc(Cl)cc2)c1=O
3. COC(=O)C(C)(C)Cn1c(=O)[nH]/c(=N\c2ccc3c(c2)cc(C)n3C)n(Cc2ccc(Cl)cc2)c1=O
4. CCCc1ccc(/N=c2\[nH]c(=O)n(C[C@H](C)C(=O)OC)c(=O)n2Cc2ccc(C)cc2)cc1OC
5. Cc1ccc(Cn2c(=O)n(CCCCC(=O)O)c(=O)[nH]/c2=N\c2ccc3nc(C)sc3c2)cc1
6. Cc1oc2ccc(/N=c3\[nH]c(=O)n(CCCOC4CCCCO4)c(=O)n3Cc3ccc(Cl)cc3)cc2c1C (centres unmarked)
7. CCCc1ccc(/N=c2\[nH]c(=O)n(CCC(=O)O)c(=O)n2Cc2ccc(C)cc2)cc1C

[7.66, 7.89, 6.29, 7.49, 7.54, 8.00, 6.53]

Please go through the list and note pIC50 for each molecule.
1. CC(C)Oc1ccc(/N=c2\[nH]c(=O)n(CCN(CCO)C(=O)OC(C)(C)C)c(=O)n2Cc2ccc(Cl)cc2)cc1F
2. CCc1nc2ccc(/N=c3\[nH]c(=O)n(C[C@H](C)C(=O)O)c(=O)n3Cc3ccc(Cl)cc3)cc2o1
3. Cc1[nH]c2ccc(/N=c3\[nH]c(=O)n(CCC(=O)O)c(=O)n3Cc3ccc(Cl)cc3)cc2c1C
4. COC(=O)[C@@H](C)Cn1c(=O)[nH]/c(=N\c2ccc3[nH]c(C)cc3c2)n(Cc2ccc(Cl)cc2)c1=O
5. COC(=O)[C@@H](C)Cn1c(=O)[nH]/c(=N\c2ccc3nc(C)ccc3c2)n(Cc2ccc(Cl)cc2)c1=O
6. CC(C)Oc1ccc(/N=c2\[nH]c(OCC(=O)NCCO)nc(=O)n2Cc2ccc(Cl)cc2)cc1F
7. Cc1cc(/N=c2\[nH]c(=O)n([C@@H](C)[C@@H](C)C(=O)O)c(=O)n2Cc2ccc(Cl)cc2)ccc1OC1CCC1

1: 7.96; 2: 6.59; 3: 7.54; 4: 7.54; 5: 7.89; 6: 6.44; 7: 7.77
